measured target: PBRM1 BD4 (UniProt Q86U86 496-637)
Sequence (Q86U86 496-637): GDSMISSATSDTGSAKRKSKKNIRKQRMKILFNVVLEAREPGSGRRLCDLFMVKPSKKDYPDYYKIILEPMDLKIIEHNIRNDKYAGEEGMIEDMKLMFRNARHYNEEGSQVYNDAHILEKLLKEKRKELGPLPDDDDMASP
method summary: NMR titration (1H-15N HSQC); NMR: 0.1 mM 15N-BD, 50 mM K phosphate pH 7.0, 50 mM KCl, 2 mM DTT, 2 mM EDTA, 7% D2O, 25 C; EMSA: 50 mM K phosphate pH 7.0, 10 mM KCl, 2 mM DTT, 2 mM EDTA, 5% sucrose, on ice 1 h, gel at 4 C
recorded conditions: protein: recombinant; tags: His tag, TEV-cleaved; hairpin, UUCG loop
measure name: pKd
Keep it numeric: pKd is minus log10 of the concentration in mol/L.

Incoming: Which pKd value is on record for GCGUAGACAGCUGUUCGCAGCUGUCUACGC (structured_RNA) [dsRNAI stem-loop 30 nt] ?
Outgoing: 3.92
